biological target: mTORC1 (Homo sapiens, UniProt P42345+P62942); construct: endogenous in cells; host or cells: PC3 cells (human prostate adenocarcinoma); experiment: Inhibition assay for mTORC1: phosphorylation of pS6K at Thr389, AlphaLISA in PC3 cells; format: cell-based; conditions: PC3 cells, treated 24 hours, pS6K Thr389, AlphaLISA; C16 diastereomer mixtures not separated; read-out: pIC50 mTORC1 (converted)
Item-by-item account of IC50

# input Give IC50 for CO[C@@H]1C[C@H](C[C@@H](C)[C@@H]2CC(=O)[C@H](C)/C=C(\C)[C@@H](O)[C@@H](OC)C(=O)[C@H](C)C[C@H](C)/C=C/C=C/C=C(\C)C(OCCO)C[C@@H]3CC[C@@H](C)[C@@](O)(O3)C(=O)C(=O)N3CCCC[C@H]3C(=O)O2)CC[C@H]1OCCCN1CCN(C)CC1 (mixture of isomers)
# output 0.316 to 3.16 nM

# input Indicate the recorded IC50 value for this compound: COCCOC1C[C@@H]2CC[C@@H](C)[C@@](O)(O2)C(=O)C(=O)N2CCCC[C@H]2C(=O)O[C@H]([C@H](C)C[C@@H]2CC[C@@H](OCCCN3CCN(C(C)C)CC3)[C@H](OC)C2)CC(=O)[C@H](C)/C=C(\C)[C@@H](O)[C@@H](OC)C(=O)[C@H](C)C[C@H](C)/C=C/C=C/C=C/1C (mixture of isomers)
# output < 0.316 nM

# input Return IC50 (reported value) for this compound: COCCOC1C[C@@H]2CC[C@@H](C)[C@@](O)(O2)C(=O)C(=O)N2CCCC[C@H]2C(=O)O[C@H]([C@H](C)C[C@@H]2CC[C@@H](OCCN3CC4(COC4)C3)[C@H](OC)C2)CC(=O)[C@H](C)/C=C(\C)[C@@H](O)[C@@H](OC)C(=O)[C@H](C)C[C@H](C)/C=C/C=C/C=C/1C (mixture of isomers)
# output < 0.316 nM

# input Find the measured IC50 of CO[C@@H]1C[C@H](C[C@@H](C)[C@@H]2CC(=O)[C@H](C)/C=C(\C)[C@@H](O)[C@@H](OC)C(=O)[C@H](C)C[C@H](C)/C=C/C=C/C=C(\C)C(OCCO)C[C@@H]3CC[C@@H](C)[C@@](O)(O3)C(=O)C(=O)N3CCCC[C@H]3C(=O)O2)CC[C@H]1OC(=O)NCCc1ccccc1 (mixture of isomers) and report it.
# output < 0.316 nM

Further cases:
# input Give reported IC50 value for COC1CC(CC(C)C2CC(=O)C(C)C=C(C)C(O)C(OC)C(=O)C(C)CC(C)C=CC=CC=C(C)C(OCCO)CC3CCC(C)C(O)(O3)C(=O)C(=O)N3CCCCC3C(=O)O2)CCC1OCCCN1CCOCC1C (mixture of isomers)
# output < 0.316 nM

# input # return recorded IC50 for input CO[C@@H]1C[C@H](C[C@@H](C)[C@@H]2CC(=O)[C@H](C)/C=C(\C)[C@@H](O)[C@@H](OC)C(=O)[C@H](C)C[C@H](C)/C=C/C=C/C=C(\C)C(OC[C@@H](C)O)C[C@@H]3CC[C@@H](C)[C@@](O)(O3)C(=O)C(=O)N3CCCC[C@H]3C(=O)O2)CC[C@H]1OCCO (mixture of isomers)
# output 0.316 to 3.16 nM

# input Determine its reported IC50: COCCOC1C[C@@H]2CC[C@@H](C)[C@@](O)(O2)C(=O)C(=O)N2CCCC[C@H]2C(=O)O[C@H]([C@H](C)C[C@@H]2CC[C@@H](OCCCN3CC4(COC4)C3)[C@H](OC)C2)CC(=O)[C@H](C)/C=C(\C)[C@@H](O)[C@@H](OC)C(=O)[C@H](C)C[C@H](C)/C=C/C=C/C=C/1C (mixture of isomers)
# output < 0.316 nM

# input Indicate its recorded IC50; the compound in question is COCCOC1CC2CCC(C)C(O)(O2)C(=O)C(=O)N2CCCCC2C(=O)OC(C(C)CC2CCC(OCCCN3CCOCC3C)C(OC)C2)CC(=O)C(C)C=C(C)C(O)C(OC)C(=O)C(C)CC(C)C=CC=CC=C1C (mixture of isomers)
# output < 0.316 nM

# input Quick one: give measured IC50 for CO[C@@H]1C[C@H](C[C@@H](C)[C@@H]2CC(=O)[C@H](C)/C=C(\C)[C@@H](O)[C@@H](OC)C(=O)[C@H](C)C[C@H](C)/C=C/C=C/C=C(\C)C(OCCCCO)C[C@@H]3CC[C@@H](C)[C@@](O)(O3)C(=O)C(=O)N3CCCC[C@H]3C(=O)O2)CC[C@H]1OCCCN1CCOCC1 (mixture of isomers)
# output < 0.316 nM
